- assay-target: SRPK1 (Homo sapiens)
- Sequence (Q96SB4 whole entry, species assumed): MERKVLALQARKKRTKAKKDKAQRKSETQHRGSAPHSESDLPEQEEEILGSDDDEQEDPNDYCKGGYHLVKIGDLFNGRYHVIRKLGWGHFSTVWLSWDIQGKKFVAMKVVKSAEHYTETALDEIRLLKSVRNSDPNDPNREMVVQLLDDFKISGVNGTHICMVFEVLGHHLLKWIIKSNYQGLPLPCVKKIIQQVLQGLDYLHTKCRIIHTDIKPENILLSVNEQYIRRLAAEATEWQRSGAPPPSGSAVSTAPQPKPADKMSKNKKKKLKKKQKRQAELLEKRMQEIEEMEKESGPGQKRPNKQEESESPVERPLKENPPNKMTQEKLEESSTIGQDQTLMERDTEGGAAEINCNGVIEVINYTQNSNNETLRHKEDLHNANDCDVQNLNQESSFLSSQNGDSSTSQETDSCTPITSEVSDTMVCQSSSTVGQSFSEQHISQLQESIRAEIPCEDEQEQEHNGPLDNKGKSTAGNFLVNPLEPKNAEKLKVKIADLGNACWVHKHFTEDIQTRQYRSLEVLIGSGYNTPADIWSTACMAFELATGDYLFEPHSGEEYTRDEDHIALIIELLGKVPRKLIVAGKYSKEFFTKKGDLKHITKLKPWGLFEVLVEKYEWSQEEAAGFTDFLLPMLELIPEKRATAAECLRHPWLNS
- run-description: In vitro SRPK1 assay (Kinase-Glo)
- Type: biochemical
measure-name: IC50 (nM)

Some solved cases for reference:
- compound: "Cc1ccc(N2CCC(O)CC2)c(NC(=O)c2ccc(C3CCOCC3)o2)c1 [Example 36]"
  assay-target: "SRPK1 (Homo sapiens)"
  units-of-measure: "nM"
  value-reported: 3.7
- compound: "CC1(O)CCN(c2ccc(C(F)F)cc2NC(=O)c2ccc(C3CCOCC3)o2)CC1 [Example 14]"
  assay-target: "SRPK1 (Homo sapiens)"
  units-of-measure: "nM"
  value-reported: 7.3
- compound: "Cc1ccc(N2CCC(C)(C)CC2)c(NC(=O)c2ccc(C3CCOCC3)o2)c1 [Example 63]"
  assay-target: "SRPK1 (Homo sapiens)"
  units-of-measure: "nM"
  value-reported: 25
- compound: "CC1(O)CCN(c2ccc(C(F)(F)F)cc2NC(=O)c2ccc(C3CCOCC3)o2)C1 (racemic) [Example 54]"
  assay-target: "SRPK1 (Homo sapiens)"
  units-of-measure: "nM"
  value-reported: 35
- compound: "CN(C)CC1(C)CCN(c2ccc(Cl)cc2NC(=O)c2ccc(C3CCOCC3)o2)CC1 [Example 91]"
  assay-target: "SRPK1 (Homo sapiens)"
  units-of-measure: "nM"
  value-reported: 41

A = Cc1ccc(N2CCC(C)(CO)CC2)c(NC(=O)c2ccc(C3CCOCC3)o2)c1 [Example 66]
B = CNCC1(C)CCN(c2ccc(C(F)(F)F)cc2NC(=O)c2ccc(C3CCOCC3)o2)CC1 [Example 82]
Endpoint returns whichever of A and B has the numerically higher IC50. Answer = label.
B

A = O=C(Nc1cc(C(F)(F)F)ccc1N1CCC(O)(CC2CC2)CC1)c1ccc(C2CCOCC2)o1 [Example 23]
B = CC1(CO)CCN(c2ccc(C(F)(F)F)cc2NC(=O)c2ccc(-c3ccncc3)o2)CC1 [Example 24]
C = CC1(O)CCCN(c2ccc(C(F)(F)F)cc2NC(=O)c2ccc(-c3ccncc3)o2)CC1 (racemic) [Example 37]
Arrange the 3 compounds by rising IC50, starting with the smallest. A ranking is expressed here by listing the labels in the requested order.
B, C, A
(B: 2 nM, C: 17 nM, A: 64 nM)

###

- assay-target: CYP1A2 (Homo sapiens)
- Construct: from tissue; host or cells: human liver microsomes
- Sequence (P05177 whole entry): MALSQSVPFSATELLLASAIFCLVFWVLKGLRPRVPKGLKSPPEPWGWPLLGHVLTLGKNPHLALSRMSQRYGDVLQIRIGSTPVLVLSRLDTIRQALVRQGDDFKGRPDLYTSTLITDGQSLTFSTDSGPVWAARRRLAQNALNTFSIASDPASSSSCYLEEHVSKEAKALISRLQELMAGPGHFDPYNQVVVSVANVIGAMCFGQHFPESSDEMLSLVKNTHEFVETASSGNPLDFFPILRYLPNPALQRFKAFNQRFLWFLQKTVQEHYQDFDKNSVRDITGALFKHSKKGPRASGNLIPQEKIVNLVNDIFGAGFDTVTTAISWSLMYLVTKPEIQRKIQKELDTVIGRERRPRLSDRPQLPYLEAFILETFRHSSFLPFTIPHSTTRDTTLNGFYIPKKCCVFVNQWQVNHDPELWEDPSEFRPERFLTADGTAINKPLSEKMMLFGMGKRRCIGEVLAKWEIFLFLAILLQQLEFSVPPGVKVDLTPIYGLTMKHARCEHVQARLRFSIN
- run-description: CYP inhibition assay, human liver microsomes, substrate tacrine
- Format: in vitro ADME
- applied-conditions: human liver microsomes, 10 min incubation, LC-MS/MS; read-out: CYP Inhibition Activity (IC50/nM) CYP1A2
measure-name: IC50 (nM)

- molecule: "O=C(Nc1cc(C(F)(F)F)ccc1N1CCC(O)C1)c1ccc(-c2ccncc2)o1 (racemic)"
  units-of-measure: "nM"
  value-reported: 960

P = O=C(Nc1cc(C2CC2)ccc1N1CCCC(O)CC1)c1ccc(-c2ccncc2)o1 (racemic)
Q = CC1(O)CCN(c2ccc(OC(F)(F)F)cc2NC(=O)c2ccc(-c3ccncc3)o2)CC1
// task: argmin of IC50 over [ P , Q ] Answer = label.
P

###

- assay-target: CYP2C9 (Homo sapiens, UniProt P11712)
- Construct: from tissue; host or cells: human liver microsomes
- Sequence (P11712 whole entry): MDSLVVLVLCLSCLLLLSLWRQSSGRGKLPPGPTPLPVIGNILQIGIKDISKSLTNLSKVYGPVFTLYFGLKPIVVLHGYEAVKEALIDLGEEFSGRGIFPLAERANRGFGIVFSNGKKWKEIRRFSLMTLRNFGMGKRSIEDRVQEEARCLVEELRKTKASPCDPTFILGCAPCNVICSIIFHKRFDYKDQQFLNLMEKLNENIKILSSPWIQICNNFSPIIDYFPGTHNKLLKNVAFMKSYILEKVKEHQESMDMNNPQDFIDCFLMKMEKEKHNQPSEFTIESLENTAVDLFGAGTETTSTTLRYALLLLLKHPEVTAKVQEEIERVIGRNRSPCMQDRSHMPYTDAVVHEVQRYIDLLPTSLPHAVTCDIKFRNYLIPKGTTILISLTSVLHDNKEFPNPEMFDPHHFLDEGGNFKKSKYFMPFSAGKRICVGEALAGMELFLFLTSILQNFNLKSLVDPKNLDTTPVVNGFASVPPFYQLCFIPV
- run-description: CYP inhibition assay, human liver microsomes, substrate diclofenac
- Assay type: in vitro ADME
- applied-conditions: human liver microsomes, 10 min incubation, LC-MS/MS; read-out: CYP Inhibition Activity (IC50/nM) CYP2C9
measure-name: IC50 (nM)

Some solved cases for reference:
- molecule: "CC1(O)CCCN(c2ccc(C3CC3)cc2NC(=O)c2ccc(C3CCOCC3)o2)CC1 (racemic)"
  measure-name: "IC50"
  units-of-measure: "nM"
  value-reported: 610
- molecule: "Cc1ccc(N2CCC(C)(CN(C)C)CC2)c(NC(=O)c2ccc(C3CCOCC3)o2)c1"
  measure-name: "IC50"
  units-of-measure: "nM"
  value-reported: 17200
- molecule: "O=C(Nc1cc(C2CC2)ccc1N1CCCC(O)CC1)c1ccc(-c2ccncc2)o1 (racemic)"
  measure-name: "IC50"
  units-of-measure: "nM"
  value-reported: 1060
- molecule: "CC1(C(=O)O)CCN(c2ccc(C(F)(F)F)cc2NC(=O)c2ccc(C3CCOCC3)o2)CC1"
  measure-name: "IC50"
  units-of-measure: "nM"
  value-reported: 12600
- molecule: "C[C@@]1(O)CCN(c2ccc(C(F)(F)F)cc2NC(=O)c2ccc(-c3ccncc3)o2)C1"
  measure-name: "IC50"
  units-of-measure: "nM"
  value-reported: 200
- molecule: "Cc1ccc(N2CCC(O)CC2)c(NC(=O)c2ccc(C3CCOCC3)o2)c1"
  measure-name: "IC50"
  units-of-measure: "nM"
  value-reported: 4940

1 = CC1(O)CCN(c2ccc(C3CC3)cc2NC(=O)c2ccc(-c3ccncc3)o2)CC1
2 = CC1(CN2CCOCC2)CCN(c2ccc(C(F)(F)F)cc2NC(=O)c2ccc(C3CCOCC3)o2)CC1
3 = CC1(O)CCN(c2ccc(C(F)F)cc2NC(=O)c2ccc(C3CCOCC3)o2)CC1
4 = CC1(CN2CCCC2)CCN(c2ccc(C(F)(F)F)cc2NC(=O)c2ccc(C3CCOCC3)o2)CC1
// ranking: key=IC50, reverse=True A ranking is expressed here by listing the labels in the requested order.
4, 3, 1, 2

A = COc1ccc(N2CCC(C)(C(=O)N(C)C)CC2)c(NC(=O)c2ccc(C3CCOCC3)o2)c1
B = O=C(Nc1cc(C(F)(F)F)ccc1N1CCN(Cc2cc[nH]n2)CC1)c1ccc(C2CCOCC2)o1 [Reference Example 3, reference compound]
// task: argmin of IC50 over [ A , B ] Answer = label.
B
(B: 230 nM, A: 800 nM)

a = CC1(CN2CCCCC2)CCN(c2ccc(C(F)(F)F)cc2NC(=O)c2ccc(C3CCOCC3)o2)CC1
b = Cc1ccc(N2CCC(C)(O)CC2)c(NC(=O)c2ccc(-c3ccncc3)o2)c1
Endpoint returns whichever of a and b has the numerically higher IC50. Answer = label.
a
(a: 17800 nM, b: 1100 nM)
